# TEST METHOD NOTES: Cell viability by CellTiter-Glo 2.0 (intracellular ATP) in HepG2.117 cells
# Type: cell-based
# SETTINGS: human, CellTiter-Glo 2.0, HepG2.117 cells, 3 days incubation
MEASURE: CC50 at 3 days (µM)
One number for each entry, in µM.

- C=C[C@H](C)Nc1nc2c(c(=O)n1-c1cc3ncn(C)c3cc1F)C[C@@H](C)N(C(=O)c1ccc(Br)c(C(F)(F)F)c1)C2 [Compound 32a]: 29.5

// next entry
# CC50 at 3 days lookup, item C=C[C@H](C)Nc1nc2c(c(=O)n1-c1ccc(C(=O)NC)c(Cl)c1)C[C@@H](C)N(C(=O)c1ccc(Br)c(C(F)(F)F)c1)C2
2.95

###

# Test system: HBV
# TEST METHOD NOTES: HBV-DNA antiviral assay using HepG2.117 cells
# Type: cell-based, HBV genotype D
# SETTINGS: Hepatitis B virus, HepG2.117, 72 h
pEC50: −log10 of the molar value.
MEASURE: pEC50

# value lookup — system HBV, readout pEC50, item C=C[C@H](C)Nc1nc2c(c(=O)n1-c1ccc(-c3nnc(C)[nH]3)cc1)C[C@@H](C)N(C(=O)c1ccc(Br)c(C(F)(F)F)c1)C2 [Compound 4a]
> 7.30

###

# TEST METHOD NOTES: Cell viability by CellTiter-Glo 2.0 (intracellular ATP) in HepG2.117 cells
# Type: cell-based
# SETTINGS: human, CellTiter-Glo 2.0, HepG2.117 cells, 3 days incubation
MEASURE: CC50 at 3 days

* C=CC(COC)Nc1nc2c(c(=O)n1-c1ccc(C(=O)NC)cc1)C[C@@H](C)N(C(=O)c1ccc(Br)c(C(F)(F)F)c1)C2 (stereo partly drawn) [Compound 16] | > 0.5 µM
* C=C[C@H](C)Nc1nc2c(c(=O)n1-c1ccc(C(=O)NC)cn1)C[C@@H](C)N(C(=O)c1ccc(Br)c(C(F)(F)F)c1)C2 [Compound 24] | > 0.5 µM
* C=C[C@H](C)Nc1nc2c(c(=O)n1-c1cc(C)c3c(c1)ncn3C)C[C@@H](C)N(C(=O)c1ccc(Br)c(C(F)(F)F)c1)C2 [Compound 47] | 23.7 µM
* C=C[C@H](C)Nc1nc2c(c(=O)n1-c1ccc(C(=O)NC)cc1Cl)C[C@@H](C)N(C(=O)c1ccc(Br)c(C(F)(F)F)c1)C2 (atropisomer, axis not shown) [Compound 44] | > 50 µM
* C=C[C@H](C)Nc1nc2c(c(=O)n1-c1ccc3c(c1)ncn3C1CC1)C[C@@H](C)N(C(=O)c1ccc(Br)c(C(F)(F)F)c1)C2 [Compound 38] | 24.3 µM

Return reported CC50 at 3 days values for all items listed beneath this line.
1. CNC(=O)c1ccc(-n2c(NCC=C(C)C)nc3c(c2=O)C[C@@H](C)N(C(=O)c2ccc(Br)c(C(F)(F)F)c2)C3)cc1 [Compound 7]
2. C=C[C@@H](C)Nc1nc2c(c(=O)n1-c1ccc3c(c1)ncn3C)C[C@@H](C)N(C(=O)c1ccc(Br)c(C(F)(F)F)c1)C2 [Compound 18]
3. C=CC(C)Nc1nc2c(c(=O)n1-c1ccc(-c3[nH]nnc3C)cc1)C[C@@H](C)N(C(=O)c1ccc(Br)c(C(F)(F)F)c1)C2 (single isomer, unassigned) [Compound 3a]
4. C=C[C@H](C)Nc1nc2c(c(=O)n1-c1cc(C(=O)NC)n(C)n1)C[C@@H](C)N(C(=O)c1ccc(Br)c(C(F)(F)F)c1)C2 [Compound 9]
5. C=C[C@H](C)Nc1nc2c(c(=O)n1-c1cc(Cl)c3c(cnn3C)c1)C[C@@H](C)N(C(=O)c1ccc(Br)c(C(F)(F)F)c1)C2 [Compound 34]
6. C=C[C@H](C)Nc1nc2c(c(=O)n1-c1ccc(C(=O)NC)nn1)C[C@@H](C)N(C(=O)c1ccc(Br)c(C(F)(F)F)c1)C2 [Compound 30]
7. C=CC(C)Nc1nc2c(c(=O)n1-c1ccc(C(=O)NC)cc1)C[C@@H](C)N(C(=O)c1ccc(Br)c(C(F)(F)F)c1)C2 (single isomer, unassigned) [Compound 2a]

1: 7.35 µM; 2: > 0.5 µM; 3: > 0.5 µM; 4: > 50 µM; 5: 11.6 µM; 6: > 50 µM; 7: > 0.5 µM

Return reported CC50 at 3 days values for all items listed beneath this line.
1. C=CC(Nc1nc2c(c(=O)n1-c1ccc(C(=O)NC)cc1)C[C@@H](C)N(C(=O)c1ccc(Br)c(C(F)(F)F)c1)C2)C1CC1 (stereo partly drawn) [Compound 11a]
2. C=C[C@H](C)Nc1nc2c(c(=O)n1-c1ccc3c(cnn3C)c1)C[C@@H](C)N(C(=O)c1ccc(Br)c(C(F)(F)F)c1)C2 [Compound 33]
3. C=C[C@H](C)Nc1nc2c(c(=O)n1-c1ccn3c(C)nnc3c1)C[C@@H](C)N(C(=O)c1ccc(Br)c(C(F)(F)F)c1)C2 [Compound 36]

1. > 50 µM
2. > 50 µM
3. > 50 µM

Return reported CC50 at 3 days values for all items listed beneath this line.
1. C=C[C@H](C)Nc1nc2c(c(=O)n1-c1ncc(C(=O)NC)cn1)C[C@@H](C)N(C(=O)c1ccc(Br)c(C(F)(F)F)c1)C2 [Compound 43]
2. C=C[C@H](C)Nc1nc2c(c(=O)n1-c1ccc(-c3nnc(C)[nH]3)cc1)C[C@@H](C)N(C(=O)c1ccc(Br)c(C(F)(F)F)c1)C2 [Compound 4a]
3. C#Cc1ccc(C(=O)N2Cc3nc(N[C@@H](C)C=C)n(-c4ccc(C(=O)NC)cc4)c(=O)c3C[C@H]2C)cc1C(F)(F)F [Compound 50]
4. C=CC(C)(C)Nc1nc2c(c(=O)n1-c1ccc3c(c1)ncn3C)C[C@@H](C)N(C(=O)c1ccc(Br)c(C(F)(F)F)c1)C2 [Compound 29]

> 50 µM
> 0.5 µM
> 50 µM
30.5 µM

Return reported CC50 at 3 days values for all items listed beneath this line.
1. C=CC1(Nc2nc3c(c(=O)n2-c2ccc(C(=O)NC)cc2)C[C@@H](C)N(C(=O)c2ccc(Br)c(C(F)(F)F)c2)C3)CCC1 [Compound 8]
2. C=CC(C)(C)Nc1nc2c(c(=O)n1-c1ccc(C(=O)NC)cc1)C[C@@H](C)N(C(=O)c1ccc(Br)c(C(F)(F)F)c1)C2 [Compound 1]
3. C=C[C@H](C)Nc1nc2c(c(=O)n1-c1ccc(OC[C@@H](C)O)cn1)C[C@@H](C)N(C(=O)c1ccc(Br)c(C(F)(F)F)c1)C2 [Compound 39]
4. C=C[C@H](C)Nc1nc2c(c(=O)n1-c1ccc(-c3cnn(C)c3)cn1)C[C@@H](C)N(C(=O)c1ccc(Br)c(C(F)(F)F)c1)C2 [Compound 37]
5. C=C[C@H](C)Nc1nc2c(c(=O)n1-c1cc(F)c3c(c1)ncn3C)C[C@@H](C)N(C(=O)c1ccc(Br)c(C(F)(F)F)c1)C2 [Compound 48]

1: 7.33 µM; 2: > 0.5 µM; 3: 28.1 µM; 4: > 50 µM; 5: 26 µM
